Target: HLA-A*26:01
Assay: IEDB peptide-MHC binding, purified MHC/direct/fluorescence; filed as Kd, often an IC50 or EC50 that approximates it; bounds were set here for any values at or beyond the usual limits of such assays
Details: source organism: Francisella tularensis subsp. tularensis FSC033
Attribute Measured: Kd

What Kd value was documented for this sequence, "REIGDISYL" ?
≥ 20 µM

---

Target: HLA-B*08:01
Assay: IEDB peptide-MHC binding, purified MHC/competitive/radioactivity; filed as Kd, often an IC50 or EC50 that approximates it; bounds were set here for any values at or beyond the usual limits of such assays
Settings: source organism: Dengue virus 1 Singapore/S275/1990
Attribute Measured: Kd (nM)
All answers are understood in nM, so give the number only.

> print(dat)
   macromolecule.sequence  attribute.measured  readout.unit  observed.measurement
1               SLGCKPLTM                  Kd            nM                   169

Let us examine a further case.
What Kd value was documented for this sequence, "KIWGRKSWPL" ?
382

---

Target: HLA-A*02:06
Assay: IEDB peptide-MHC binding, purified MHC/competitive/radioactivity; filed as Kd, often an IC50 or EC50 that approximates it; bounds were set here for any values at or beyond the usual limits of such assays
Conditions: source organism: Lymphocytic choriomeningitis virus (strain Armstrong)
Reported values of pKd for individual entries
Please express pKd as -log10 of the molar concentration.

> print(dat)
   macromolecule.sequence  attribute.measured  observed.measurement
1              MSCDDVVFGI                 pKd                  6.60

What pKd value was documented for this sequence, "ALMDLLMFS" ?
7.86

---

Reported values of pKd for individual entries
Biological target: HLA-A*02:19
Assay: IEDB peptide-MHC binding, purified MHC/competitive/fluorescence; filed as Kd, often an IC50 or EC50 that approximates it; bounds were set here for any values at or beyond the usual limits of such assays
Settings: source organism: Entamoeba histolytica HM-1:IMSS
pKd: −log10 of the molar value.

> print(dat)
   macromolecule.sequence  study.target  observed.measurement
1               EVIRATYPS   HLA-A*02:19                ≤ 4.70

Let us examine a further case.
What pKd value was documented for this sequence, "RTFDRFFEE" ?
≤ 4.70

---

Biological target: HLA-A*02:19
Assay: IEDB peptide-MHC binding, purified MHC/direct/fluorescence; filed as Kd, often an IC50 or EC50 that approximates it; bounds were set here for any values at or beyond the usual limits of such assays
Conditions: source organism: Vibrio vulnificus YJ016
Attribute Measured: Kd

Lab note: need Kd with HLA-A*02:19 for entry "TSCAPMMQK" , please look it up.
≥ 20 µM

---

Biological target: HLA-B*58:01
Experiment: IEDB peptide-MHC binding, purified MHC/direct/fluorescence; filed as Kd, often an IC50 or EC50 that approximates it; bounds were set here for any values at or beyond the usual limits of such assays
Conditions: source organism: Francisella tularensis subsp. tularensis FSC033
Attribute Measured: Kd

Lab note: need Kd with HLA-B*58:01 for entry "NTIEELSGY" , please look it up.
≥ 20 µM

---

Target: HLA-A*03:01
Assay: IEDB peptide-MHC binding, purified MHC/direct/fluorescence; filed as Kd, often an IC50 or EC50 that approximates it; bounds were set here for any values at or beyond the usual limits of such assays
Settings: source organism: Influenza A virus (A/turkey/Minnesota/511/1978(H9N2))
Attribute Measured: Kd

What Kd value was documented for this sequence, "DLLENLQAY" ?
≥ 20 µM

---

Biological target: HLA-B*58:01
Assay: IEDB peptide-MHC binding, purified MHC/direct/fluorescence; filed as Kd, often an IC50 or EC50 that approximates it; bounds were set here for any values at or beyond the usual limits of such assays
Conditions: source organism: Influenza A virus (A/turkey/Minnesota/511/1978(H9N2))
pKd: −log10 of the molar value.
Attribute Measured: pKd

What pKd value was documented for this sequence, "DLLENLQAY" ?
≤ 4.70

---

Molecular target: HLA-A*68:01
Assay: IEDB peptide-MHC binding, purified MHC/competitive/radioactivity; filed as Kd, often an IC50 or EC50 that approximates it; bounds were set here for any values at or beyond the usual limits of such assays
Conditions: source organism: SARS coronavirus Tor2
pKd: −log10 of the molar value.
Lab note: anything with pKd at or over 7 counts as t; the rest go in f.

> print(dat)
   macromolecule.sequence  cat
1               STCMMCYKR    t
2              SVVNARLRAK    f
3               CVFAYVGCY    f
4              LQFTSLEIPR    f
5               AAYFVGYLK    t

Does the reported pKd for "MSAPPAEYK" fall at or above the 7 mark?
t

Note, next up: "AVMYMGTLSY"
f

Note, next up: "VLAAECTIFK"
f

---

Target: HLA-A*03:01
Experiment: IEDB peptide-MHC binding, purified MHC/direct/fluorescence; filed as Kd, often an IC50 or EC50 that approximates it; bounds were set here for any values at or beyond the usual limits of such assays
Conditions: source organism: Influenza A virus (A/New Caledonia/20/1999(H1N1))
Attribute Measured: Kd

What Kd value was documented for this sequence, "WMACHSAAF" ?
≥ 20 µM

---

Target: HLA-B*58:01
Experiment: IEDB peptide-MHC binding, purified MHC/direct/fluorescence; filed as Kd, often an IC50 or EC50 that approximates it; bounds were set here for any values at or beyond the usual limits of such assays
Conditions: source organism: Vibrio parahaemolyticus
Attribute Measured: Kd

What Kd value was documented for this sequence, "ILRPLGIEY" ?
≥ 20 µM

---

Biological target: HLA-A*02:01
Assay: IEDB peptide-MHC binding, purified MHC/competitive/fluorescence; filed as Kd, often an IC50 or EC50 that approximates it; bounds were set here for any values at or beyond the usual limits of such assays
Settings: source organism: Cryptosporidium parvum Iowa II
pKd: −log10 of the molar value.
Attribute Measured: pKd

Lab note: need pKd with HLA-A*02:01 for entry "DLAQDPMLI" , please look it up.
≤ 4.70

---

Biological target: HLA-B*18:01
Assay: IEDB peptide-MHC binding, purified MHC/competitive/radioactivity; filed as Kd, often an IC50 or EC50 that approximates it; bounds were set here for any values at or beyond the usual limits of such assays
Settings: source organism: Mammarenavirus brazilense
Attribute Measured: Kd

What Kd value was documented for this sequence, "AENGELTEI" ?
≥ 77.5 µM

---

Biological target: HLA-C*12:03
Assay: IEDB peptide-MHC binding, purified MHC/direct/fluorescence; filed as Kd, often an IC50 or EC50 that approximates it; bounds were set here for any values at or beyond the usual limits of such assays
Details: source organism: Leishmania major strain Friedlin
Attribute Measured: Kd

Lab note: need Kd with HLA-C*12:03 for entry "VATVNAVTV" , please look it up.
0.018 µM

---

Biological target: HLA-A*03:01
Test: IEDB peptide-MHC binding, purified MHC/direct/fluorescence; filed as Kd, often an IC50 or EC50 that approximates it; bounds were set here for any values at or beyond the usual limits of such assays
Settings: source organism: Ebola virus - Gabon (1994-1997)
pKd: −log10 of the molar value.
Attribute Measured: pKd

What pKd value was documented for this sequence, "AKATGRYNL" ?
≤ 4.70

---

Molecular target: HLA-B*51:01
Assay: IEDB peptide-MHC binding, purified MHC/competitive/fluorescence; filed as Kd, often an IC50 or EC50 that approximates it; bounds were set here for any values at or beyond the usual limits of such assays
Conditions: source organism: Giardia lamblia ATCC 50803
Attribute Measured: Kd

What Kd value was documented for this sequence, "LLDDGWAGE" ?
≥ 20 µM

---

Target: HLA-A*68:02
Assay: IEDB peptide-MHC binding, purified MHC/competitive/fluorescence; filed as Kd, often an IC50 or EC50 that approximates it; bounds were set here for any values at or beyond the usual limits of such assays
Conditions: source organism: Escherichia coli F11
pKd: −log10 of the molar value.
Attribute Measured: pKd

What pKd value was documented for this sequence, "GSGDDTWLI" ?
≤ 4.70

---

Molecular target: HLA-B*58:01
Assay: IEDB peptide-MHC binding, purified MHC/competitive/radioactivity; filed as Kd, often an IC50 or EC50 that approximates it; bounds were set here for any values at or beyond the usual limits of such assays
Details: source organism: Dengue virus 3 Martinique/1243/1999
Reported values of Kd for individual entries
All answers are understood in nM, so give the number only.

> print(dat)
   macromolecule.sequence  attribute.measured  observed.measurement
1               MALKLITQF                  Kd                  2.16

What Kd value was documented for this sequence, "NSSFIIDGPN" ?
5.43

Note, next up: "IASAIVLEF"
2.88
